System: HepG2
Settings: human, 72 h

MOLECULE	UNIT_LABEL	PREFIX_OPERATOR	IC50
COc1ccc2c(=O)n(CCc3ccccc3)c(=O)n(Cc3ccc(C(=O)NO)cc3)c2c1 [Compound 2]	µM	>	10
O=C(NO)C(F)(F)c1ccc(Cn2c(=O)n(CCc3ccccc3)c(=O)c3ccccc32)cc1 [Compound 20]	µM	=	7.43
Cn1c(=O)c2ccc(Cl)cc2n(Cc2ccc(C(=O)NO)cc2)c1=O [Compound 10]	µM	=	6.65
N#Cc1ccc2c(=O)n(CCc3ccccc3)c(=O)n(Cc3ccc(CC(=O)NO)cc3)c2c1 [Compound 23]	µM	=	4.24
O=C(NO)c1cccc(Cn2c(=O)n(CCc3ccccc3)c(=O)c3ccccc32)c1 [Compound 6]	µM	=	3.41
O=C(NO)c1ccc(Cn2c(=O)n(Cc3ccccc3)c(=O)c3ccccc32)cc1 [Compound 11]	µM	=	4.39
O=C(Cc1ccc(Cn2c(=O)n(CCc3ccccc3)c(=O)c3ccccc32)c(F)c1)NO [Compound 19]	µM	=	2.75
Cc1ccc2c(=O)n(CCc3ccccc3)c(=O)n(Cc3ccc(C(=O)NO)cc3)c2c1 [Compound 22]	µM	=	6.82

###

Tested on: LNCap
Conditions: human, 72 h
pIC50: −log10 of the molar value.
QUANTITY_MEASURED: pIC50

COMPOUND	PREFIX_OPERATOR	TEST_VALUE
O=C(Cc1ccc(Cn2c(=O)n(CCc3ccccc3)c(=O)c3ccccc32)cc1)NO [Compound 16]	=	5.22
O=C(NO)C(F)(F)c1ccc(Cn2c(=O)n(CCc3ccccc3)c(=O)c3ccccc32)cc1 [Compound 20]	=	5.00
N#Cc1ccc2c(=O)n(CCc3ccccc3)c(=O)n(Cc3ccc(CC(=O)NO)cc3)c2c1 [Compound 23]	=	5.39
O=C(NO)c1ccc(Cn2c(=O)n(CCc3ccccc3)c(=O)c3ccsc32)cc1 [Compound 21]	=	6.01
Cc1ccc2c(=O)n(CCc3ccccc3)c(=O)n(Cc3ccc(C(=O)NO)cc3)c2c1 [Compound 22]	=	5.27
O=C(NO)c1ccc(Cn2c(=O)n(CCc3ccccc3)c(=O)c3cccnc32)cc1 [Compound 12]	=	5.12
COc1ccc2c(=O)n(CCc3ccccc3)c(=O)n(Cc3ccc(C(=O)NO)cc3)c2c1 [Compound 2]	<	5.00
O=C(NO)c1ccc(Cn2c(=O)n(CCc3ccccc3)c(=O)c3cc(F)ccc32)cc1 [Compound 17]	=	5.24

###

Test system: LNCap
Assay: Cell proliferation assay MTT, LNCaP
Settings: read-out: Cytotoxicity IC50 Prostate LNCap, 72 hr treated
pIC50: −log10 of the molar value.
The entries below come with measured pIC50 values attached.
QUANTITY_MEASURED: pIC50

COMPOUND	SYSTEM_NAME	PREFIX_OPERATOR	TEST_VALUE
COc1ccccc1CCn1c(=O)c2ccccc2n(Cc2ccc(C(=O)NO)cc2)c1=O	LNCap	=	5.24
CN1CCc2c(c3ccccc3n2Cc2ccc(C(=O)NO)cc2)C1 [Tubastatin A, reference compound]	LNCap	<	5.00
O=C(NO)c1ccc(Cn2c(=O)n(CCc3ccccc3)c(=O)c3ccccc32)cc1	LNCap	=	6.36
O=C(NO)c1ccc(Cn2c(=O)n(CCc3ccccc3)c(=O)c3ccc(C(F)(F)F)cc32)cc1	LNCap	=	5.23
O=C(NO)c1ccc(Cn2c(=O)n(CCc3ccccc3)c(=O)c3cc(Cl)ccc32)cc1	LNCap	=	6.00
N#Cc1ccc2c(=O)n(CCc3ccccc3)c(=O)n(Cc3ccc(C(=O)NO)cc3)c2c1	LNCap	<	5.00

###

Tested on: U87MG
Conditions: human, 72 h
pIC50: −log10 of the molar value.

SMILES_ENTRY	SYSTEM_NAME	PREFIX_OPERATOR	pIC50
O=C(NO)c1ccc(Cn2c(=O)n(CCc3ccccc3)c(=O)c3ccc(O)cc32)cc1	U87MG	=	5.37
COc1ccc2c(=O)n(CCc3ccccc3)c(=O)n(Cc3ccc(C(=O)NO)cc3)c2c1	U87MG	<	5.00
O=C(Cc1ccc(Cn2c(=O)n(CCc3ccccc3)c(=O)c3ccccc32)c(F)c1)NO	U87MG	=	5.58
O=C(NO)c1ccc(Cn2c(=O)n(CCc3ccc(F)cc3)c(=O)c3ccccc32)cc1	U87MG	=	5.20
O=C(NO)c1ccc(Cn2c(=O)n(CCc3ccccc3)c(=O)c3ccc(Cl)cc32)cc1	U87MG	=	5.68
O=C(NO)c1ccc(Cn2c(=O)n(CCc3cccs3)c(=O)c3ccccc32)cc1	U87MG	=	5.38
N#Cc1ccc2c(=O)n(CCc3ccccc3)c(=O)n(Cc3ccc(CC(=O)NO)cc3)c2c1	U87MG	=	5.39
O=C(NO)c1ccc(Cn2c(=O)n(CCc3ccccc3)c(=O)c3cccnc32)cc1	U87MG	=	5.04
O=C(NO)C(F)(F)c1ccc(Cn2c(=O)n(CCc3ccccc3)c(=O)c3ccccc32)cc1	U87MG	=	5.01
O=C(NO)c1ccc(Cn2c(=O)n(CCc3ccccc3)c(=O)c3cc(F)ccc32)cc1	U87MG	=	5.21
Cc1ccc2c(=O)n(CCc3ccccc3)c(=O)n(Cc3ccc(C(=O)NO)cc3)c2c1	U87MG	=	5.25
Cn1c(=O)c2ccc(Cl)cc2n(Cc2ccc(C(=O)NO)cc2)c1=O	U87MG	=	5.12
O=C(NO)c1cc(Cn2c(=O)n(CCc3ccccc3)c(=O)c3ccccc32)cs1	U87MG	=	5.28
O=C(NO)c1cccc(Cn2c(=O)n(CCc3ccccc3)c(=O)c3ccccc32)c1	U87MG	=	5.43
O=C(Cc1ccc(Cn2c(=O)n(CCc3ccccc3)c(=O)c3ccccc32)cc1)NO	U87MG	=	5.20
O=C(NO)c1ccc(Cn2c(=O)n(Cc3ccccc3)c(=O)c3ccccc32)cc1	U87MG	=	5.39
O=C(NO)c1ccc(Cn2c(=O)n(CCc3ccccc3)c(=O)c3ccsc32)cc1	U87MG	=	5.53
O=C(NO)c1ccc(Cn2c(=O)n(CCc3cccc(F)c3)c(=O)c3ccccc32)cc1	U87MG	=	5.42

###

Here we list compounds with their recorded IC50 when tested on Human HDAC6 (Homo sapiens (Human)).
Sequence (Q9UBN7 whole entry): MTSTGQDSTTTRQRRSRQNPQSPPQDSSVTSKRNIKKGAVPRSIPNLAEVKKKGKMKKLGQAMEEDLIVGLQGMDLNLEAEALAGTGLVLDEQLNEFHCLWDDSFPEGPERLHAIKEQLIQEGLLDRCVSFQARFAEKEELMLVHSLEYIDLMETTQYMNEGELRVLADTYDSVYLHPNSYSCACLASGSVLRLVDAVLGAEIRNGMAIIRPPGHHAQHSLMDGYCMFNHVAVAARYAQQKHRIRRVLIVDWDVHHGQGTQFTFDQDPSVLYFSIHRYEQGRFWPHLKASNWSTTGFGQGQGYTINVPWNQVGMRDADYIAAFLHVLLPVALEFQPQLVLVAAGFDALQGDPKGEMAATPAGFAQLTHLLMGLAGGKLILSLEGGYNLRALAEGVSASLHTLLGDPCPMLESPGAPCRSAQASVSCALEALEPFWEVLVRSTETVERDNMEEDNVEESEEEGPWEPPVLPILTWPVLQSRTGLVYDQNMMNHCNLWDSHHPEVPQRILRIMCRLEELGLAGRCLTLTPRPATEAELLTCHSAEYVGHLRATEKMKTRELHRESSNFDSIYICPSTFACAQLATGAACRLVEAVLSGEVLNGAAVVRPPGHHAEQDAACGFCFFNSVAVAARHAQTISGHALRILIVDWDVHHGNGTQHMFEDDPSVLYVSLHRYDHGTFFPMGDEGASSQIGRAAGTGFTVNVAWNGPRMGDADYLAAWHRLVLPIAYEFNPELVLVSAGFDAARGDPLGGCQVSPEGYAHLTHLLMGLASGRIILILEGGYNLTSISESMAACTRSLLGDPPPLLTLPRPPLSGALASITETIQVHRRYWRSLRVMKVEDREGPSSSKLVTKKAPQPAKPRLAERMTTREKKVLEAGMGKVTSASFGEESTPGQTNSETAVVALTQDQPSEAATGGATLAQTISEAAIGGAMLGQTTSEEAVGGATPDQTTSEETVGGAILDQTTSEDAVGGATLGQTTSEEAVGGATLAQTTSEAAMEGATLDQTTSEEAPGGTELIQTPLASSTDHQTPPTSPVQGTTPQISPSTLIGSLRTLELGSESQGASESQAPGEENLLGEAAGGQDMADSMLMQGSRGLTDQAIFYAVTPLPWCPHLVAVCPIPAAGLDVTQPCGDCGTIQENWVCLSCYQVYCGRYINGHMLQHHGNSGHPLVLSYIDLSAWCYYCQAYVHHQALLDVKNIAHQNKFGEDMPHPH

SMILES_ENTRY	SYSTEM_NAME	IC50 (µM)
O=C(NO)c1ccc(Cn2c(=O)n(CCc3ccccc3)c(=O)c3ccccc32)cc1	Human HDAC6 (Homo sapiens (Human))	0.004
O=C(NO)c1ccc(Cn2c(=O)n(CCc3ccccc3)c(=O)c3cc(F)ccc32)cc1	Human HDAC6 (Homo sapiens (Human))	0.057
COc1ccccc1CCn1c(=O)c2ccccc2n(Cc2ccc(C(=O)NO)cc2)c1=O	Human HDAC6 (Homo sapiens (Human))	0.011
O=C(NO)c1ccc(Cn2c(=O)n(CCc3ccccc3)c(=O)c3ccc(C(F)(F)F)cc32)cc1	Human HDAC6 (Homo sapiens (Human))	0.635
N#Cc1ccc2c(=O)n(CCc3ccccc3)c(=O)n(Cc3cccc(C(=O)NO)c3)c2c1	Human HDAC6 (Homo sapiens (Human))	4.45
O=C(NO)c1ccc(Cn2c(=O)n(CCc3ccccc3O)c(=O)c3ccccc32)cc1	Human HDAC6 (Homo sapiens (Human))	0.006
Cn1c(=O)c2ccc(Cl)cc2n(Cc2ccc(C(=O)NO)cc2)c1=O	Human HDAC6 (Homo sapiens (Human))	0.004
N#Cc1ccc2c(=O)n(CCc3ccccc3)c(=O)n(Cc3ccc(C(=O)NO)cc3)c2c1	Human HDAC6 (Homo sapiens (Human))	13.5

###

Assay: in vitro
Settings: monkey
QUANTITY_MEASURED: IC50 at 72 h

SMILES_ENTRY	TEST_VALUE
Cn1c(=O)c2ccc(Cl)cc2n(Cc2ccc(C(=O)NO)cc2)c1=O	93.2 µM
O=C(NO)C(F)(F)c1ccc(Cn2c(=O)n(CCc3ccccc3)c(=O)c3ccccc32)cc1	> 200 µM
COc1ccc2c(=O)n(CCc3ccccc3)c(=O)n(Cc3ccc(C(=O)NO)cc3)c2c1	> 10 µM

###

System: MOLM13
Test: Cell proliferation assay MTT, MOLM13
Details: human, MOLM13 leukemia cells, 72 h
pIC50: −log10 of the molar value.
The entries below come with measured pIC50 values attached.
QUANTITY_MEASURED: pIC50

COMPOUND	SYSTEM_NAME	TEST_VALUE
Cc1ccc2c(=O)n(CCc3ccccc3)c(=O)n(Cc3ccc(C(=O)NO)cc3)c2c1 [Compound 22]	MOLM13	5.75
O=C(NO)c1ccc(Cn2c(=O)n(CCc3ccccc3)c(=O)c3ccc(Cl)cc32)cc1 [Compound 8]	MOLM13	6.32
O=C(NO)c1ccc(Cn2c(=O)n(CCc3ccccc3)c(=O)c3ccc(O)cc32)cc1 [Compound 4]	MOLM13	6.09
O=C(NO)c1ccc(Cn2c(=O)n(CCc3ccc(F)cc3)c(=O)c3ccccc32)cc1 [Compound 14]	MOLM13	5.79
N#Cc1ccc2c(=O)n(CCc3ccccc3)c(=O)n(Cc3ccc(CC(=O)NO)cc3)c2c1 [Compound 23]	MOLM13	5.63
O=C(NO)c1ccc(Cn2c(=O)n(CCc3cccc(F)c3)c(=O)c3ccccc32)cc1 [Compound 26]	MOLM13	5.40
O=C(Cc1ccc(Cn2c(=O)n(CCc3ccccc3)c(=O)c3ccccc32)c(F)c1)NO [Compound 19]	MOLM13	5.76
O=C(Cc1ccc(Cn2c(=O)n(CCc3ccccc3)c(=O)c3ccccc32)cc1)NO [Compound 16]	MOLM13	5.48

Attribution: patent US11535598B2
